Entries and their measured growth follow.
# System: KM12 colon
# assay notes: NCI-60 one-dose screen, 48 h (100 = growth as untreated, 0 = no growth, -100 = all killed)
# condition set: 10 µM unless noted
Compounds without any hit were thinned out: in the full panel of roughly 83,000, 20% have a hit. Active and inactive are the calls of the source. How the source made its calls: active means growth percent below 10; inactive means the rest.
measured metric: growth

>>> recorded_value("COc1ccc2nc(NC(=O)CN3CCn4c(nnc4C(F)(F)F)C3)sc2c1")
"79.3% (inactive)"
>>> recorded_value("C=C(CN1CCc2c([nH]c3ccccc23)C1)c1ccc(C(=O)Nc2ccon2)cc1")
"141% (inactive)"
>>> recorded_value("CN1C(=O)C(C2=NN(C=O)C(c3ccc(F)cc3)C2)C(=O)N(C)C1=O (stereo not given)")
"99.9% (inactive)"
>>> recorded_value("CCCCCc1c(C)[nH]c(/C=C2\\N=C(c3ccc[nH]3)C=C2OCc2ccccc2)c1C")
"-80.9% [100 µM] (active)"
>>> recorded_value("CCSc1nc(-c2cccs2)n2nc(-c3ccco3)cc2n1")
"82.5% (inactive)"
